Biological target: T1, melanocortin-1 receptor (MC1-R) of B-16 mouse melanoma cells (mouse, UniProt Q01727 1-315)
T1 construct: whole, on cells; membranes prepared from the cells were used; also called Melanocortin Receptor 1
T1 sequence (Q01727 whole entry): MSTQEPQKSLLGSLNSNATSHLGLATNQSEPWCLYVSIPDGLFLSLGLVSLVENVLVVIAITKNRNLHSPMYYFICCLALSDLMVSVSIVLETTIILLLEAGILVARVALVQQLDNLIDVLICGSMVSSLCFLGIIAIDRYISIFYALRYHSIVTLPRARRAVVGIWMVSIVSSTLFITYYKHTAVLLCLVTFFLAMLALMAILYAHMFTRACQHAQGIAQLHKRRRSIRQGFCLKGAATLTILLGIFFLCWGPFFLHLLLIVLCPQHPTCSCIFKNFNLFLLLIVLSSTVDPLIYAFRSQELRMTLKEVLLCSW
Assay: 125I-NDP-α-MSH competition, B-16 membranes
Protocol: The competitive inhibition binding assay was conducted using membranes prepared from hMC3-R, hMC4-R, hMC5-R, and B-16 mouse melanoma cells (containing MC1-R) using 0.4 nM ¹²⁵I-NDP-alpha-MSH (New England Nuclear, Boston, Mass., USA) in 50 mM HEPES buffer containing 1 mM MgCl₂, 2 mM CaCl₂, and 5 mM KCl, at pH 7.2. […] The filter was dried and counted in a gamma counter for remaining radioactivity bound to the membranes. […]
Square brackets hold non-standard residues; d marks the D form. Ends that are not written are not given here. Nle = CCCC[C@H](N)C(=O)O
quantity.name: % Inhibition at 1 µM (%)
Respond with the bare value in %.

Worked examples, 6 binders total:
{"columns": ["binder", "quantity.name", "recorded.measurement"],
 "data": [
  ["YVC[Nle]GH[dF]RWDRF-NH2 (bridge (positions not given here); not fully specified (bridges); printed as Tyr-Val-Cys-Nle-Gly-His-D-Phe-Arg-Trp-Asp-Arg-Phe-NH2.; also: oxorhenium(V) N3S1 complex) [metallopeptide 3-11]", "% Inhibition at 1 µM", 95],
  ["YV[Nle]GH[dF]RWDCRF-NH2 (not fully specified (bridges); printed as Tyr-Val-Nle-Gly-His-D-Phe-Arg-Trp-Asp-Cys-Arg-Phe-NH2; also: oxorhenium(V) N3S1 chelate (backbone N of W8, D9, C10 and C10 S)) [metallopeptide 3-3]", "% Inhibition at 1 µM", 99],
  ["YV[Nle]GH[dF]CRWDRF-NH2 (not fully specified (bridges); printed as Tyr-Val-Nle-Gly-His-D-Phe-Cys-Arg-Trp-Asp-Arg-Phe-NH2; also: bridge at 7 via Re(V)=O, other end not in the chain) [metallopeptide 3-6]", "% Inhibition at 1 µM", 52],
  ["YV[Nle]GH[dF]RWDRCF-NH2 (not fully specified (bridges); printed as Tyr-Val-Nle-Gly-His-D-Phe-Arg-Trp-Asp-Arg-Cys-Phe-NH2; also: oxorhenium(V) N3S1 chelate (backbone N of D9, R10, C11 and C11 S)) [metallopeptide 3-2]", "% Inhibition at 1 µM", 99],
  ["YV[Nle]GCH[dF]RWDRF-NH2 (also: oxorhenium(V) N3S1 chelate: C5 SG + backbone N of X3, G4, C5, bridge at 5 via Re(V)=O, other end not in the chain) [metallopeptide 3-9]", "% Inhibition at 1 µM", 77],
  ["YV[Nle]CGH[dF]RWDRF-NH2 (also: Re(V)=O N3S1 chelate via V2 N, Nle3 N, Cys4 N and S (ReOCl3(PPh3)2)) [metallopeptide 3-10]", "% Inhibition at 1 µM", 84]
]}

Query: Requested read-out: % Inhibition at 1 µM. Entry: YV[Nle]GH[dF]RWCDRF-NH2 (not fully specified (bridges); printed as Tyr-Val-Nle-Gly-His-D-Phe-Arg-Trp-Cys-Asp-Arg-Phe-NH2; also: oxorhenium(V) N3S1 chelate (backbone N of R7, W8, C9 and C9 S)) [metallopeptide 3-4]
Response: 98
